Values from PubChem BioAssay (NCI)

Test system: ACHN renal
Assay: NCI-60 one-dose screen, 48 h (100 = growth as untreated, 0 = no growth, -100 = all killed)
Details: 10 µM
Procedure: Growth inhibition of the ACHN human tumor cell line is measured as a screen for anti-cancer activity. Cells are grown in 96 well plates and exposed to the test compound for 48 hours. Compounds are tested at a single concentration, which is 10^-5 M for most compounds. The reported endpoint is percent growth (GI% or GIPRCNT), where numbers from 0 - 100% represent growth inhibition, and numbers from -100% - 0 represent cell death. For example, a value of 40 represents 60% growth inhibition. […]
This is part of a sample that, as a whole, favours compounds with a hit. Of some 83,000 tested, about 20% had one in any assay.
Measured parameter: growth (%)
# value in %; strip the unit string

Bench note: what growth did COc1cc(/C=C2\Oc3cc(OCC(=O)c4ccccc4)ccc3C2=O)cc(OC)c1OC show?
89.6

Given the molecule N=C(N)c1ccc(-c2ccc(-c3ccccc3)o2)nc1 , what is its reported growth?
92.4

* * *

Tested on: 786-0 renal
Test: NCI-60 one-dose screen, 48 h (100 = growth as untreated, 0 = no growth, -100 = all killed)
Conditions: 10 µM
About 83,000 compounds went through this panel and 20% of them were active in at least one assay; those are over-represented in the sample as a whole.
Measured growth, listed per entry for reference.
Please respond with the number in % and leave the unit unwritten.

Worked examples follow.
| Molecule | Target entity | growth (%) |
| --- | --- | --- |
| CCN(CC)CCNc1ccc(CO)c2oc3cc(Cl)ccc3c(=O)c12 | 786-0 renal | 76 |
| COC(=O)C(C(C[N+](=O)[O-])c1ccccc1)=P(c1ccccc1)(c1ccccc1)c1ccccc1 (stereo unspecified) | 786-0 renal | 96.1 |
| CN(C)CCN1C(=O)c2cccc3c(-c4ccc5ncn(C6CCCCC6)c5c4)ccc(c23)C1=O | 786-0 renal | 19.1 |
| ClCC#CCSc1ncnc2c1ncn2CC#CCCl | 786-0 renal | 13.3 |
| C#Cc1ccc(-n2c(/C=C/c3ccc(O)cc3)nc3ncccc3c2=O)cc1 | 786-0 renal | 62.6 |

Report growth for O=C1c2ccc3c4c(ccc(c24)C(=O)N1CCNCc1ccccc1)C(=O)N(CCNCc1ccccc1)C3=O please.
52.4

Reported growth for O=C(Nc1ccncc1)C(=O)c1cn(S(=O)(=O)c2cccc3ccccc23)c2ccccc12 : what is it?
77.5

I am curious: what growth value has been reported for O=c1[nH]c(-c2ccc(Cl)cc2)nc2sc3c(c12)CCCC3 ?
95.7

Report growth for Cn1c([N+](=O)[O-])cnc1/C=C1\Oc2ccc(Cl)cc2C1=O please.
-23.2

Requested read-out: growth. Entry: COc1cc2cc3c(nc2cc1OC)CCN3Cc1ccc(NC(=O)Nc2ccc(F)cc2F)cc1
70.4

growth for O=C(Nc1nc2ccccc2s1)Nc1ccc([N+](=O)[O-])cc1Cl ?
-23.5

What measured growth goes with O=C1CC[C@@H]2CCCC[C@@H]2C1 ?
103

Using the record for N=C(N)c1ccc(-c2ccc(-c3ccco3)o2)cc1 , report its growth.
79.9

Query: growth; subject: Cc1cs/c(=N\NC(=O)c2cc(-c3cc4ccccc4o3)nn2-c2ccccc2)n1-c1ccccc1
91.4

Given the entry COc1ccc(-c2ccc3cc(C(=O)Nc4ccc(O)c(C(=O)/C=C/c5cc(OC)c(OC)c(OC)c5)c4)ccc3c2)cc1 , report its measured growth.
102
